protocol.description: CEETOX_H295R_OHPREG: CeeTox H295R High-throughput Steroidogenesis Assay for OH-Pregnenolone (OHPREG) (AID 2283434)
recorded.conditions: actives raise or lower the signal
Calls of active or inactive are those of the source. The calls were made as follows: active = hit-call score of the fitted dose curve at least 0.9, where 1 is the maximum; inactive = score below 0.9.
The reply should be one of these categories: active, inactive

Cc1cc(NC(=O)C(=O)O)cc(C)c1Oc1ccc(O)c2c1CCC2 : inactive
CC1(C)CC(N=C=O)CC(C)(CN=C=O)C1 (stereo unspecified) : inactive
Oc1ccc2c(c1)OC[C@@H](N1CCC(O)(c3ccc(F)cc3)CC1)[C@H]2O : inactive
Nc1ccc(S(=O)(=O)c2ccc(N)cc2)cc1 : inactive
C=CCc1ccc(O)c(OC)c1 : inactive

Please look at the following compound next.
Exam item: Which outcome was assigned to Nc1ccccc1N in this test?
Marked response: inactive
